The measured values listed here are drawn from ChEMBL document CHEMBL2057108.

Test: Permeability across human Caco2 cells
Assay type: ADME, cell-based
Settings: Caco-2, read-out: Kp
So I've got a bunch of compounds here, and I need their Papp values.
Give the value, in units of ×10⁻⁶ cm/s, as a plain number.

Asked: # get_value(readout='Papp', item= CC(=O)N1CCN(CCN2[C@@H]3CC[C@H]2C[C@@H](NC(=O)c2nn(C(C)C)c4ccccc24)C3)CC1 )
Given back: 31

Asked: # get_value(readout='Papp', item= CC(C)n1nc(C(=O)N[C@H]2C[C@H]3CC[C@@H](C2)N3CCN2CCN(S(C)(=O)=O)CC2)c2ccccc21 )
Given back: 31

Asked: # get_value(readout='Papp', item= CC(C)n1nc(C(=O)N[C@H]2C[C@H]3CC[C@@H](C2)N3CC(O)CN2CCC(CNS(C)(=O)=O)CC2)c2ccccc21 (stereo not given in full) )
Given back: 1

Asked: # get_value(readout='Papp', item= CC(C)n1nc(C(=O)N[C@H]2C[C@H]3CC[C@@H](C2)N3C[C@H](O)CN2CCN(S(C)(=O)=O)CC2)c2ccccc21 )
Given back: 18

Asked: # get_value(readout='Papp', item= CC(C)N(C)CC(O)CN1[C@@H]2CC[C@H]1C[C@@H](NC(=O)c1nn(C(C)C)c3ccccc13)C2 (stereo not given in full) )
Given back: 26
